This section presents compounds with their documented Percent Effect values.
Test system: Wolbachia pipientis
Assay Info: Anti-Wolbachia Cell-Based Screen
Type: functional
Parameters: scale not given: in the data most compounds retested in dose-response had high values
Recorded Conditions: 5 µM
Out of some 48,000 compounds screened, about 13,000 (27%) showed an effect of 50% or more. The list shows a part of the results.
Result Type: Percent Effect (%)

• Cn1cc(Cl)c(CN2CCCC(Cn3cc(CO)nn3)C2)n1 (stereo unspecified) = -2.88
• CC1(C(=O)N2CCC(n3cc(C4(O)CCCC4)nn3)CC2)CCCCC1 = -2.498
• CN(Cc1ccco1)Cc1ccccc1CNC(=O)c1csnn1 = -8.686
• CCCOc1cc(C)c2c(c1C)C[C@H]([C@H](C)C(=O)O)CC2 = -9.304
• COCc1nnc(-c2cccc(C(=O)N(C)CC(C)(C)C)c2)o1 = 1.349
• C=C1C(C)(C)[C@H]2CC[C@]1(C(=O)N1CCC(n3cc(CO)nn3)CC1)C2 = 93.63
• Cc1cc(S(=O)(=O)Nc2cccc(OC(F)F)c2)sc1C(=O)O = -5.292
• Cc1ccc(C(=O)N2CCC(n3cc(CO)nn3)CC2)cn1 = 1.663
• O=C(NCc1ccccc1CN1CCOCC1)Nc1nncs1 = 33.23
• CC(O)c1cn(C2CCN(C(=O)C3(C)CCN(C)CC3)CC2)nn1 (stereo unspecified) = 3.786
• Cc1ccoc1C(=O)N1CCC(n2cc(CO)nn2)CC1 = -7.426
